The measured values listed here are drawn from patent US20250032569A1.

Assay: UVA/UVB ratio from absorption spectra (Eq. 3) and Boots UVA Star Rating
Type: physicochemical
Conditions: chemical UV filter 1% in sun protective solution
assay.endpoint: UVA/UVB
Lab note: jot the number down without any unit.

molecule: CCCCC(CC)COC(=O)C(C#N)=C(c1ccccc1)c1ccccc1 (stereo not shown)
value.measured: 0.22

molecule: CCCCC(CC)COc1ccc(-c2nc(-c3ccc(OC)cc3)nc(-c3ccc(OCC(CC)CCCC)cc3O)n2)c(O)c1 (stereo not shown)
value.measured: 0.50

molecule: CCCCCCCCCCCCc1cc(C)cc(-n2nc3ccccc3n2)c1O
value.measured: 0.62

Query molecule follows.
Q: Read off the recorded UVA/UVB for CCCCC(CC)COC(=O)c1ccc(Nc2nc(Nc3ccc(C(=O)OCC(CC)CCCC)cc3)nc(Nc3ccc(C(=O)OCC(CC)CCCC)cc3)n2)cc1 (stereo not shown)
A: 0.21
